# Tested on: HCC-2998 colon
# RUN DESCRIPTION: NCI tumour cell line growth inhibition, 48 h; in the data active = GI50 below about 0.43 µM; inactive = the rest
Where a SMILES comes first, the peptide text is derived from it. Bridges are numbered along the chain shown (N, C = ends). Roman numbers before positions name the chains, in order. [ ]: non-standard residue; d: D form. The star is where a group is joined. Heptadecanoyl = CCCCCCCCCCCCCCCCC(=O)*; Phg = N[CH](C(=O)O)c1ccccc1
Give your call using only these classes: Y for active, N for inactive

Challenge: // outcome(item) with item = Cc1ccc(C2CC(c3cccc(Nc4ccncc4)c3)=NN2c2ccc(Cl)cc2)cc1 (stereo not drawn)
Response given: N

Challenge: What classification did CCCCCCCCCCCCCCCCC(=O)N1CCCC1C(=O)NCC(=O)NC(C(=O)N1CCCC1C(=O)NC(CO)C(=O)NC(Cc1ccc(O)cc1)C(=O)NC(CCCCNC(=O)C1CCCN1C(=O)C(CCCCN)NC(=O)C(CCCCN)NC(=O)C(CCCCN)NC(=O)C(CCCNC(=N)N)NC(=O)C(CCCCN)NC(=O)C(N)C(C)C)C(=O)NC(CC(C)C)C(=O)NC(CCCNC(=N)N)C(=O)N1CCCC1C(=O)NCC(N)=O)c1ccccc1 (stereo not drawn) (I: Heptadecanoyl-PG[Phg]PSYKLRPG-NH2 / II: H-VKRKKKP; amide I:7-II:C; configuration not given here) end up with in this test?
Response given: N

Challenge: Lab log entry: O=C(CN/C=C\C(=O)c1cc(Cl)ccc1Cl)c1ccccc1 — outcome as called in the assay?
Response given: N

Challenge: What did this assay record as the result for Cc1cc(Cl)ccc1Nc1nc(C(F)(F)F)ccc1C(=O)N/N=C/c1c(Cl)cccc1Cl ?
Response given: N

Challenge: Per the assay record, what outcome was assigned to COC(C(=O)[C@@H](O)[C@@H](C)O)[C@@H]1Cc2cc3cc(O[C@H]4C[C@@H](O[C@H]5C[C@@H](O)[C@H](O)C(C)O5)[C@H](O)C(C)O4)c(C)c(O)c3c(O)c2C(=O)[C@H]1O[C@H]1C[C@@H](O[C@H]2C[C@@H](O[C@H]3C[C@@H](O)[C@@H](O)C(C)O3)[C@@H](O)C(C)O2)[C@H](O)C(C)O1 (stereo partly drawn) ?
Response given: N

Challenge: What call does the record list for COc1cc2c(/C=C3/C(=O)Nc4c3ccc3ccccc43)c(Cl)[nH]c2cc1C ?
Response given: Y

Challenge: I'd appreciate the recorded outcome for O=C(Nc1cccc(-n2cc(-c3ccncc3)c(-c3ccc(O)c(Cl)c3)n2)c1)Nc1ccc(Cl)c(C(F)(F)F)c1 from this test.
Response given: N

Challenge: Please share the test call associated with O=C1[C@H](c2ccccc2)C2c3ccccc3CCN12 (stereo partly drawn) .
Response given: N

Challenge: What classification did COc1ccc2c(c1)N(CCO)C1=C(C(=O)OC1)C2c1cccc(Br)c1 (stereo not drawn) end up with in this test?
Response given: Y

Challenge: Each compound tested received a call. Report the one for N=C(N)c1ccc(-c2ccc(-c3ccco3)o2)cc1F .
Response given: N

Challenge: Outcome logged for COc1ccc(-c2oncc2-c2cc(OC)c3c(c2)OCO3)cc1 in this assay:
Response given: N

Challenge: Please let me know the test result on file for C#Cc1ccc(-n2c(/C=C/c3ccc4ccccc4n3)nc3ncccc3c2=O)cc1 .
Response given: N

Challenge: Hi team, can someone confirm the assay call for NNc1nc(-c2ccccn2)nc2sc3c(c12)CCCCCC3 ?
Response given: N

Challenge: Name the outcome recorded for COc1ccc(C2SC(C)C(=O)N2NC(=O)C(O)c2ccccc2)cc1 (stereo not drawn) in the assay.
Response given: N

Challenge: // outcome(item) with item = Cn1cc(-c2nc(-c3cn(C)c4ncccc34)cs2)c2cc(F)ccc21
Response given: N

Challenge: Recorded test call requested for C#CCOc1c(OC)cc(C(=O)/C(C)=C/c2cccc(N=[N+]=[N-])c2)cc1OC
Response given: N

Challenge: Given C[C@H]1[C@H](C)CC[C@]2(C(=O)O)CC[C@]3(C)C(=CC[C@@H]4[C@@]5(C)CC[C@H](OC(=O)/C=C\c6ccc(O)cc6)C(C)(C)[C@@H]5CC[C@]43C)[C@H]12 , state the outcome it received in this test.
Response given: N

Challenge: Entry COC(=O)C12OCC34C(CC5C(C)=CC(=O)C(O)C5(C)C3C(O)C1O)OC(=O)C(OC(=O)CC(C)C)C24 (stereo not drawn) : call = ?
Response given: Y

Measured values drawn from PubChem BioAssay (NCI) for this set.
